- Test system: U-251
- METHOD NOTES: NCI tumour cell line growth inhibition, 48 h
Activity calls are given as the source filed them. Rule as the data show it: active = GI50 up to about 1.1 µM and inactive = higher.
Quick reference: GI50 of the listed items.

Input line: Need GI50, item NC(=O)C(=Cn1c(=S)[nH]c2ccc([N+](=O)[O-])cc21)C(N)=O
Output line: > 100 µM (inactive)

Input line: Now give it for Nc1ncnc2c1cnn2Cc1cn(COCC(O)CO)nn1 (stereo not drawn) too.
Output line: > 100 µM (inactive)

Input line: Now consider COC(=O)/C(=N\NC(N)=O)C(C(=O)C(=O)Nc1ccccc1OC)c1nc2ccc([N+](=O)[O-])cc2nc1O (stereo not drawn) .
Output line: > 100 µM (inactive)

Now consider a different compound.
Input line: I have this compound here, COc1ccc2ccccc2c1C1=NC(C)(C)CO1 , and I need its recorded GI50.
Output line: > 100 µM (inactive)
